# ASSAY_SYSTEM: T1, human ROR1 expressed on cells (MDA-MB-231, Jeko-1, PA-1, HCC1187) (human, UniProt Q01973 30-937)
# T1 construct: also called hROR1
# T1 sequence (Q01973 30-937 limits assumed): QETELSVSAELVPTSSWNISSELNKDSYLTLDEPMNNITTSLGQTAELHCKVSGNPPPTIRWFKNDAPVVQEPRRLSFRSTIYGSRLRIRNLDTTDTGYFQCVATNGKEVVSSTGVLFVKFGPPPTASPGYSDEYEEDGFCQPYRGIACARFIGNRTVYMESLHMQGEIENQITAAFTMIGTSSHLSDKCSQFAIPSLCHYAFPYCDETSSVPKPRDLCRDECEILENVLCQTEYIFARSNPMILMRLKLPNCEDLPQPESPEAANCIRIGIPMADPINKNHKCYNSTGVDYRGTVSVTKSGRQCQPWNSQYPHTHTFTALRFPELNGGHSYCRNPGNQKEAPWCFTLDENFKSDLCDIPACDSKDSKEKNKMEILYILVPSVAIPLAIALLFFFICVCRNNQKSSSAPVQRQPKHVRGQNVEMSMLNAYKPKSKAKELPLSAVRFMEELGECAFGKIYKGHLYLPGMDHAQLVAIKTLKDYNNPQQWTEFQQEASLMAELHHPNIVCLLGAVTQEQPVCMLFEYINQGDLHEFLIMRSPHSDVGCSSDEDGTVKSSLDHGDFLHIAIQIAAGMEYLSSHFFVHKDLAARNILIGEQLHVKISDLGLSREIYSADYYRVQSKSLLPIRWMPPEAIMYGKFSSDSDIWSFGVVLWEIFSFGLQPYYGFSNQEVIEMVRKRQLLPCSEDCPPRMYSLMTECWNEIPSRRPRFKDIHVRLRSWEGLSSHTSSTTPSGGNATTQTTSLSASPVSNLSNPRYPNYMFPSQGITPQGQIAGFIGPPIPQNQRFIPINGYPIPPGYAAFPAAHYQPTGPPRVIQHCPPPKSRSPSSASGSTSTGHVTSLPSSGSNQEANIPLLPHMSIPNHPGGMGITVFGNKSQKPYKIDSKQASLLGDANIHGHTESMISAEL
# EXPERIMENTAL_DETAILS: flow cytometry on MDA-MB-231 cells
MEASURE: EC50 (µg/mL)
Note: unit µg/mL is implicit; provide only the numeric part.

Observe how each entry below is paired with its result.
[[record]]
binder = "AM3-ZH6 (antibody, human IgG1, kappa, V domains shown) VH: EVQLVESGGGLVQPGGSLRLSCAASGFTFSSYAMSWVRQAPGKGLEWVSSISTGASAYFPDSVKGRFTISRDNAKNSLYLQMNSLRAEDTAVYYCARITTSTWYMDVWGQGTTVTVSS VL: DIQMTQSPSAMSASVGDRVTITCKASQDIYSYLSWFQQKPGKVPKTLIYRANRLVGGVPSRFSGSGSGQEYTLTISSLQPEDMATYYCLQYDEFPYTFGQGTKLEIKR"
measure = "EC50"
val = 0.013

[[record]]
binder = "AM3-ZH1 (antibody, human IgG1, kappa, V domains shown) VH: EVQLVESGGGLVQPGGSLRLSCAASGFTFSSYPMSWVRQAPGKGLEWVSSISTGASAYFPDSVKGRFTISRDNAKNSLYLQMNSLRAEDTAVYYCARYTTSTWYFDVWGQGTTVTVSS VL: DIQMTQSPSAMSASVGDRVTITCKASQDIYSYLSWFQQKPGKVPKTLIYRANRLVRGVPSRFSGSGSGQEYTLTISSLQPEDMATYYCLQYDEFPYTFGQGTKLEIKR"
measure = "EC50"
val = 0.0169


What EC50 value was documented for this binder, AM3-ZH4 (antibody, human IgG1, kappa, V domains shown) VH: EVQLVESGGGLVQPGGSLRLSCAASGFTFSSYAMSWVRQAPGKGLEWVSSISTGASAYFPDSVKGRFTISRDNAKNSLYLQMNSLRAEDTAVYYCARYTTSTWYHDVWGQGTTVTVSS VL: DIQMTQSPSAMSASVGDRVTITCKASQDIYSYLSWFQQKPGKVPKTLIYRANRLVRGVPSRFSGSGSGQEYTLTISSLQPEDMATYYCLQYDEFPYTFGQGTKLEIKR ? 0.0163

Record: AM3-ZH5 (antibody, human IgG1, kappa, V domains shown) VH: EVQLVESGGGLVQPGGSLRLSCAASGFTFSSYAMSWVRQAPGKGLEWVSSISTGASAYFPDSVKGRFTISRDNAKNSLYLQMNSLRAEDTAVYYCARITTSTWYMDVWGQGTTVTVSS VL: DIQMTQSPSAMSASVGDRVTITCKASQDIFSYLSWFQQKPGKVPKTLIYRANRLVSGVPSRFSGSGSGQEYTLTISSLQPEDMATYYCLQYDEFPYTFGQGTKLEIKR 0.0148

Record: H10-hVH4-hVL4 (antibody, human IgG1, kappa, V domains shown, also called H10-VH4VL4) VH: EVQLVESGGGLVQPGGSLRLSCAASGFTFSSYAMSWVRQAPGKGLEWVSSISTGASAYFPDSVKGRFTISRDNAKNSLYLQMNSLRAEDTAVYYCARITTSTWYFDVWGQGTTVTVSS VL: DIQMTQSPSAMSASVGDRVTITCKASQDINSYLSWFQQKPGKVPKTLIYRANRLVDGVPSRFSGSGSGQEYTLTISSLQPEDMATYYCLQYDEFPYTFGQGTKLEIKR 0.0304

Record: AM3-ZH7 (antibody, human IgG1, kappa, V domains shown) VH: EVQLVESGGGLVQPGGSLRLSCAASGFTFSSYAMSWVRQAPGKGLEWVSSISTGASAYFPDSVKGRFTISRDNAKNSLYLQMNSLRAEDTAVYYCARITTSTWYMDVWGQGTTVTVSS VL: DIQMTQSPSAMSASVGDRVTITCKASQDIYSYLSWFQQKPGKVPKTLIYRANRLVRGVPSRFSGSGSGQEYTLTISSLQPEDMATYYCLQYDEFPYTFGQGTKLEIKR 0.0101

Record: AM3-ZH3 (antibody, human IgG1, kappa, V domains shown, human IgG1 / kappa) VH: EVQLVESGGGLVQPGGSLRLSCAASGFTFSSYPMSWVRQAPGKGLEWVSSISTGASAYFPDSVKGRFTISRDNAKNSLYLQMNSLRAEDTAVYYCARITTSTWYMDVWGQGTTVTVSS VL: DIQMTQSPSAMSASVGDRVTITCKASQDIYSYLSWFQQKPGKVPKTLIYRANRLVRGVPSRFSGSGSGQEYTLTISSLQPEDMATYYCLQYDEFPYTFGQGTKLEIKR 0.011
